The reader will find reported fold change of affinity values listed item by item below.
# MEASURED_TARGET: T1, Human CD3eg linker (human)
# T1 construct: Single-chain construct; also called recombinant human CD3
# T1 chain: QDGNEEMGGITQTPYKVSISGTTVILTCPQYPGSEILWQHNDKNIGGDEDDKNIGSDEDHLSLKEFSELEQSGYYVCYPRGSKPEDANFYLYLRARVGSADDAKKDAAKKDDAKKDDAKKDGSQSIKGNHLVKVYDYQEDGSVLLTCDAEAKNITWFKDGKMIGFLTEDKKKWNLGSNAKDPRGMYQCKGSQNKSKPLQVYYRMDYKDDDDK
# EXPERIMENT_NOTES: SPR; fold vs parent H183/L072
State the answer as a number, implicitly in fold.

Worked examples follow.
{"BINDER": "H183/L072 VL T92E (antibody, name in Kabat numbering, V domains shown) VH: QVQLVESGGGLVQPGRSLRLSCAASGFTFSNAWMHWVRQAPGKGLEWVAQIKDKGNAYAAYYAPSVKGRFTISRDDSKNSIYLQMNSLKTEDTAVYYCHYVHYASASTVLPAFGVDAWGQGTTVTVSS VL: DIVMTQSPLSLPVTPGEPASISCQASQELVHMNRNTYLHWYQQKPGQAPRLLIYKVSNRFPGVPDRFSGSGSGTDFTLKISRVEAEDVGVYYCAQGESVPFTFGQGTKLEIK", "UNIT_INFO": "fold", "VALUE_REPORTED": 0}
{"BINDER": "H183/L072 VL F96D (antibody, name in Kabat numbering, V domains shown) VH: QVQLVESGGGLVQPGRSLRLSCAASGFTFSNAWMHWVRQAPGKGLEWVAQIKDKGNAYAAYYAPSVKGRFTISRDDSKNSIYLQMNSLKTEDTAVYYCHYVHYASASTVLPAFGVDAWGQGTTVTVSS VL: DIVMTQSPLSLPVTPGEPASISCQASQELVHMNRNTYLHWYQQKPGQAPRLLIYKVSNRFPGVPDRFSGSGSGTDFTLKISRVEAEDVGVYYCAQGTSVPDTFGQGTKLEIK", "UNIT_INFO": "fold", "VALUE_REPORTED": 0}
{"BINDER": "H183/L072 VL V51H (antibody, name in Kabat numbering, V domains shown) VH: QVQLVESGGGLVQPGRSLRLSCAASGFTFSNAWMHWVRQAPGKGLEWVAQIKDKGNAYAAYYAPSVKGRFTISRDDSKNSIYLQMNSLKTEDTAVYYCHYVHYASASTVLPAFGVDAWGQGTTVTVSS VL: DIVMTQSPLSLPVTPGEPASISCQASQELVHMNRNTYLHWYQQKPGQAPRLLIYKHSNRFPGVPDRFSGSGSGTDFTLKISRVEAEDVGVYYCAQGTSVPFTFGQGTKLEIK", "UNIT_INFO": "fold", "VALUE_REPORTED": 0.2}

Sample H183/L072 VL R29L (antibody, name in Kabat numbering, V domains shown) VH: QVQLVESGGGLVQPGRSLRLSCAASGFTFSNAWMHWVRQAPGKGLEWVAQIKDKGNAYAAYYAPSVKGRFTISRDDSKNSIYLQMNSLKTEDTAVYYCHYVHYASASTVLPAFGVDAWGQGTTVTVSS VL: DIVMTQSPLSLPVTPGEPASISCQASQELVHMNLNTYLHWYQQKPGQAPRLLIYKVSNRFPGVPDRFSGSGSGTDFTLKISRVEAEDVGVYYCAQGTSVPFTFGQGTKLEIK ; fold change of affinity observed: 0.8

Sample H183/L072 VL V27cW (antibody, name in Kabat numbering, V domains shown) VH: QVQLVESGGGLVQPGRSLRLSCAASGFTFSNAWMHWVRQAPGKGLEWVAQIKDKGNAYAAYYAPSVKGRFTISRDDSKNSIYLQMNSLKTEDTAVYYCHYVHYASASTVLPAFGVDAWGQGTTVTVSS VL: DIVMTQSPLSLPVTPGEPASISCQASQELWHMNRNTYLHWYQQKPGQAPRLLIYKVSNRFPGVPDRFSGSGSGTDFTLKISRVEAEDVGVYYCAQGTSVPFTFGQGTKLEIK ; fold change of affinity observed: 0.3
